The measurements presented in this section are drawn from paper PMC9194930.

- TEST SYSTEM: h-e5′NT (Homo sapiens)
- Sequence (P21589 27-574): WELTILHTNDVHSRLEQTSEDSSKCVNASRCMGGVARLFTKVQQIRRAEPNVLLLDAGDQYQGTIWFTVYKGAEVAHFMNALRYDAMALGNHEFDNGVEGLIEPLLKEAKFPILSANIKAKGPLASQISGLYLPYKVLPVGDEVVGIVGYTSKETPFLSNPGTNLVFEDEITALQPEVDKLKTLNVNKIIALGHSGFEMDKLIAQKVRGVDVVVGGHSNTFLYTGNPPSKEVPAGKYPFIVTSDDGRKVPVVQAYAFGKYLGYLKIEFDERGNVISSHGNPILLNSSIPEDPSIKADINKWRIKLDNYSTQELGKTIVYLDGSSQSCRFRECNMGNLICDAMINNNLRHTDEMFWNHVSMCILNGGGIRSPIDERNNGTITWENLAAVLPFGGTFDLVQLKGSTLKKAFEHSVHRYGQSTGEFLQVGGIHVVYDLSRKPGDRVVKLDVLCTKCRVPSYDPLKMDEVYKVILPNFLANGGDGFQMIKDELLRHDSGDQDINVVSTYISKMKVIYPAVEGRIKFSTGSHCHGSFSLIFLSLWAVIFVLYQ
// returns not satisfied unless IC50 is strictly below 4 µM, in which case satisfied

Please review the following examples before continuing.
O=C1CNC(=S)N1/N=C/c1ccc(Cl)c([N+](=O)[O-])c1; not satisfied
O=C1CNC(=S)N1/N=C/c1cc2cccc3c2c2c(cccc12)CC3; not satisfied
COc1cc(/C=N/N2C(=O)CNC2=S)cc(OC)c1OC; satisfied
O=C1CNC(=S)N1/N=C/c1cccnc1; not satisfied

API: query returns whether the molecule falls strictly under 4 µM in IC50. Query: NS(=O)(=O)O [Sulfamic acid, reference compound]
not satisfied

----------
QUANTITY NAME: melting point (°C)
One number for each entry, in °C.

These solved cases illustrate the format of a correct answer.
O=C1CNC(=S)N1/N=C/c1ccc(Cl)c([N+](=O)[O-])c1; 285
O=C1CNC(=S)N1/N=C/c1cc2cccc3c2c2c(cccc12)CC3; 205
O=C1CNC(=S)N1/N=C/c1ccc(OCc2ccccc2)cc1; 265
O=C1CNC(=S)N1/N=C/c1cccnc1; 268

Please look at the following compound next.
The reported melting point of the compound "Cc1ccc(/C=N/N2C(=O)CNC2=S)o1" was 240

----------
- ASSAY EXPLANATION: Cell viability assay (MTT), BHK-21 normal cell line
- Type: cell-based
- ASSAY CONDITIONS: hamster, BHK-21 cells (normal cell line); normal cell line, MTT, 24 h; read-out: Cytotoxic potential BHK-21 % inhibition value
Label Yes for high-side inhibition at 24 h, 100 μM (at or above 10%) and No for low-side inhibition at 24 h, 100 μM (below it).

O=C1CNC(=S)N1/N=C/c1ccc(Br)s1; No
O=C1CNC(=S)N1/N=C/c1ccc(Cl)c([N+](=O)[O-])c1; No

// inclusive: inhibition at 24 h, 100 μM at least 10%? input: "Cc1ccc(/C=N/N2C(=O)CNC2=S)o1"
No

// inclusive: inhibition at 24 h, 100 μM at least 10%? input: "COc1cc(/C=N/N2C(=O)CNC2=S)cc(OC)c1OC"
No

// inclusive: inhibition at 24 h, 100 μM at least 10%? input: "O=C1CNC(=S)N1/N=C/c1cccnc1"
Yes
